Task for the reader: assign each of the following compounds its reported Vd.
Assay: Volume of distribution at steady state in Sprague-Dawley rat at 2 mg/kg, iv
Assay type: ADME, organism-based
Conditions: in vivo, read-out: Vdss
In your response, the unit should come after the numeric value.

Fill in: Vd of O=C(NOC[C@H](O)CO)c1cc2c(c(F)c1Nc1ccc(I)cc1F)OCC2 is ___
9.4 L/kg

Fill in: Vd of O=C(NOC(CO)CO)c1cc2ccoc2c(F)c1Nc1ccc(I)cc1F is ___
0.8 L/kg

---

Assay: AUC (0 to t) in Sprague-Dawley rat at 10 mg/kg, po via gavage
Type: ADME, organism-based
Settings: in vivo
Endpoint Label: AUC(0-t) (ng·h/mL)
Give a bare numeral; the unit ng·h/mL is implied.

Fill in: AUC(0-t) of O=C(NOC(CO)CO)c1cc2ccoc2c(F)c1Nc1ccc(I)cc1F is ___
43300

Fill in: AUC(0-t) of O=C(NOCCO)c1cc2ccoc2c(F)c1Nc1ccc(I)cc1F is ___
8370

Fill in: AUC(0-t) of O=C(NOC[C@H](O)CO)c1cc2c(c(F)c1Nc1ccc(I)cc1F)OCC2 is ___
1470

Fill in: AUC(0-t) of O=C(NOC[C@H](O)CO)c1cc2ccoc2c(F)c1Nc1ccc(I)cc1F is ___
2860

---

Task for the reader: assign each of the following molecules its reported bioavailability.
Test: Oral bioavailability in Sprague-Dawley rat at 10 mg/kg via gavage
Format: ADME, organism-based
Details: in vivo
Give a bare numeral; the unit % is implied.

Fill in: bioavailability of O=C(NOC[C@H](O)CO)c1cc2c(c(F)c1Nc1ccc(I)cc1F)OCC2 is ___
62

Fill in: bioavailability of O=C(NOC(CO)CO)c1cc2ccoc2c(F)c1Nc1ccc(I)cc1F is ___
80

---

Task for the reader: assign each of the following compounds its reported half-life.
Assay: Half life in Sprague-Dawley rat at 10 mg/kg, po via gavage
Assay type: ADME, organism-based
Conditions: in vivo
Give a bare numeral; the unit h is implied.

Fill in: half-life of O=C(NOC(CO)CO)c1cc2ccoc2c(F)c1Nc1ccc(I)cc1F is ___
2.5

Fill in: half-life of O=C(NOC[C@H](O)CO)c1cc2c(c(F)c1Nc1ccc(I)cc1F)OCC2 is ___
2

Fill in: half-life of O=C(NOCCO)c1cc2ccoc2c(F)c1Nc1ccc(I)cc1F is ___
1.7

Fill in: half-life of O=C(NOC[C@H](O)CO)c1cc2ccoc2c(F)c1Nc1ccc(I)cc1F is ___
3.4

---

Endpoint Label: IC50

Write down the reported IC50 of O=C(NC[C@@H](O)CO)c1cc2c(c(F)c1Nc1ccc(I)cc1F)OCC2 , test system: Dual specificity mitogen-activated protein kinase kinase 1 (Homo sapiens).
Sequence (Q02750 whole entry): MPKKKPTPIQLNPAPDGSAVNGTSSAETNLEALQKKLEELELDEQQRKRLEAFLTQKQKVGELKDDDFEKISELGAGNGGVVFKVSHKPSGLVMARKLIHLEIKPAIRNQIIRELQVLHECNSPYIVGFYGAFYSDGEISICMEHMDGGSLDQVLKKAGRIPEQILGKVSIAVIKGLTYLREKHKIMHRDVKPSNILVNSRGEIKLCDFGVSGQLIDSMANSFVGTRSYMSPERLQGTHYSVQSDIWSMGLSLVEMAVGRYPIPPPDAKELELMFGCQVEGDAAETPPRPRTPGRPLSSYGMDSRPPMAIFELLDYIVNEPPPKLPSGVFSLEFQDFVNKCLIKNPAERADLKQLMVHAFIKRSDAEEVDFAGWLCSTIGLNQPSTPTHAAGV
> 1000 nM

Write down the reported IC50 of O=C(NC[C@H](O)CO)c1cc2c(c(F)c1Nc1ccc(I)cc1F)OCC2 , test system: Dual specificity mitogen-activated protein kinase kinase 1 (Homo sapiens).
> 1000 nM

Write down the reported IC50 of O=C(c1cc2c(c(F)c1Nc1ccc(I)cc1F)OCC2)N1C[C@@H](O)CO1 , test system: Dual specificity mitogen-activated protein kinase kinase 1 (Homo sapiens).
> 1000 nM

---

Tested on: COLO 205
Assay: Antiproliferative activity against human COLO205 cells harboring BRAF mutant/wild type KRAS/wild type PIK3CA after 72 hrs by CCK8 assay
Settings: COLO 205, 72 h
pIC50: −log10 of the molar value.
Lab note: anything with pIC50 at or over 8 counts as satisfied; the rest go in not satisfied.

Evaluate O=C(NOC(CO)CO)c1cc2ccoc2c(F)c1Nc1ccc(I)cc1F : pIC50 at minimum 8?
satisfied

Evaluate O=C(NOC[C@@H](O)CO)c1cc2c(c(F)c1Nc1ccc(I)cc1F)OCC2 : pIC50 at minimum 8?
not satisfied

Evaluate O=C(NOC[C@H](O)CO)c1cc2ccoc2c(F)c1Nc1ccc(I)cc1F : pIC50 at minimum 8?
satisfied
